# Test system: Escherichia coli TOP10;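 also: peptides expressed intracellularly from a pBAD plasmid library in pooled LB shake-flask culture, induced with 0.3% L-arabinose, DNA abundance read by NGS, three biological replicates, DESeq2 with apeglm shrinkage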
# experimental_details: shrunken log2 fold change of peptide-encoding DNA abundance (4.5 h post-induction vs induction); higher = less antimicrobial activity (less host growth inhibition)
# experimental_parameters: time post-induction: 4.5 h; library: site-saturation at positions 5, 18, 19, 20
Give measured shrunken log2 fold change for each item. Keep answers brief.
No unit in the answer, only the number.

Query RRIRERPPRLPRPRPRPLKWPRP on Escherichia coli TOP10; shrunken log2 fold change returned: 0.159

The reported Escherichia coli TOP10 shrunken log2 fold change of RRIRKRPPRLPRPRPRPYQVPRP is 0.0805

# RRIRERPPRLPRPRPRPQMCPRP with Escherichia coli TOP10: shrunken log2 fold change is 0.0746

Lab entry: Escherichia coli TOP10 assay, sequence RRIRPRPPRLPRPRPRPSISPRP , shrunken log2 fold change = -0.37

# RRIRTRPPRLPRPRPRPCAVPRP with Escherichia coli TOP10: shrunken log2 fold change is -0.262

Field shrunken log2 fold change (Escherichia coli TOP10), entry RRIRFRPPRLPRPRPRPHIYPRP : -1.22

Record RRIRQRPPRLPRPRPRPFKPPRP has Escherichia coli TOP10 shrunken log2 fold change equal to -0.0337

Reported Escherichia coli TOP10 shrunken log2 fold change for item RRIRCRPPRLPRPRPRPFVDPRP was -0.307

Known value: Escherichia coli TOP10 shrunken log2 fold change of the sequence RRIRTRPPRLPRPRPRPPTQPRP equals 0.282

Entry RRIRPRPPRLPRPRPRPKAVPRP , tested on Escherichia coli TOP10, has a reported shrunken log2 fold change of 0.0993

Per the reported Escherichia coli TOP10 data, RRIRIRPPRLPRPRPRPPAKPRP has shrunken log2 fold change of 0.309

Entry RRIRRRPPRLPRPRPRPDFNPRP under Escherichia coli TOP10 had shrunken log2 fold change of -0.155

The recorded shrunken log2 fold change with Escherichia coli TOP10 for RRIRSRPPRLPRPRPRPGAEPRP was 0.606

For the sequence RRIRGRPPRLPRPRPRPIDNPRP , the measured shrunken log2 fold change on Escherichia coli TOP10 was 0.186

Record RRIRMRPPRLPRPRPRPFIRPRP ; system Escherichia coli TOP10; shrunken log2 fold change = -0.47

Reported Escherichia coli TOP10 shrunken log2 fold change for item RRIRCRPPRLPRPRPRPRMLPRP was 0.0183

Noted shrunken log2 fold change for RRIRYRPPRLPRPRPRPVIQPRP , tested on Escherichia coli TOP10: -0.607

// returns shrunken log2 fold change for RRIRQRPPRLPRPRPRPKGFPRP with Escherichia coli TOP10; value = -0.219

RRIRNRPPRLPRPRPRPMKFPRP on Escherichia coli TOP10 gives shrunken log2 fold change = -0.000903

# RRIRIRPPRLPRPRPRPCPNPRP with Escherichia coli TOP10: shrunken log2 fold change is -0.159

Bench note, Escherichia coli TOP10: entry RRIRSRPPRLPRPRPRPRDDPRP , its shrunken log2 fold change = 0.0905

The sequence RRIRYRPPRLPRPRPRPEWHPRP , when measured on Escherichia coli TOP10, yielded shrunken log2 fold change of -0.186

The reported Escherichia coli TOP10 shrunken log2 fold change of RRIRLRPPRLPRPRPRPFSHPRP is -0.262

RRIRSRPPRLPRPRPRPRVYPRP tested on Escherichia coli TOP10 gave shrunken log2 fold change: -0.348

Escherichia coli TOP10 assay, sequence RRIRERPPRLPRPRPRPHQGPRP , recorded shrunken log2 fold change = 0.0963

Escherichia coli TOP10 data for RRIRKRPPRLPRPRPRPITKPRP ; its shrunken log2 fold change: -0.0212

Sample RRIRCRPPRLPRPRPRPGQGPRP , system: Escherichia coli TOP10. Its shrunken log2 fold change is 0.43

Record RRIRVRPPRLPRPRPRPKCQPRP ; system Escherichia coli TOP10; shrunken log2 fold change = 0.106

# shrunken log2 fold change measured on Escherichia coli TOP10 for item RRIRFRPPRLPRPRPRPMIHPRP = -0.0677

Log: Escherichia coli TOP10, sequence RRIRGRPPRLPRPRPRPVGAPRP , shrunken log2 fold change = 1.13

# lookup: RRIRDRPPRLPRPRPRPSPSPRP on Escherichia coli TOP10, shrunken log2 fold change = -0.018

Record RRIRPRPPRLPRPRPRPPISPRP has Escherichia coli TOP10 shrunken log2 fold change equal to -0.0159
